Listing of entries alongside the reported melting point.
Give your result in °C as a bare value.

Some compounds with known melting point results, for comparison:
>>> recorded_measurement("CC(=O)N1CCC(Cn2c(C(C)(C)C)nc3cc(S(=O)(=O)c4ccc(F)cc4)ccc32)CC1")
186
>>> recorded_measurement("CC(=O)N1CCC(Cn2c(C(C)(C)C)nc3cc(S(=O)(=O)c4ccccn4)ccc32)CC1")
205
>>> recorded_measurement("CC(=O)N1CCC(Cn2c(C(C)(C)C)nc3cc(S(=O)(=O)c4cccc(C#N)c4)ccc32)CC1")
191

(Q) For the compound "CC(=O)N1CCC(Cn2c(C(C)(C)C)nc3cc(S(=O)(=O)c4ccc(C(F)(F)F)cc4)ccc32)CC1" , what melting point is on record?
(A) 189

====

Listing of entries alongside the reported EC50.
Target: human CB2 (hCB2) receptor (Homo sapiens, UniProt P34972)
Sequence (P34972 whole entry): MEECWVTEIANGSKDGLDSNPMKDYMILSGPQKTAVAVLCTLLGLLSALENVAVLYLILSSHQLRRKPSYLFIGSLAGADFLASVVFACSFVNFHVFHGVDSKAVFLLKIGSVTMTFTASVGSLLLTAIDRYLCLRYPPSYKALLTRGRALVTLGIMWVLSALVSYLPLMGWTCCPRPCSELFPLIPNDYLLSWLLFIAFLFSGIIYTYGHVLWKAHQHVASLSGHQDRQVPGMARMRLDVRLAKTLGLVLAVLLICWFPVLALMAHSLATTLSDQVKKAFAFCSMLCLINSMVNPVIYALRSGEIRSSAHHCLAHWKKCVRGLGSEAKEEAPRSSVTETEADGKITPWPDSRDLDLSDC
Test: Inhibition of forskolin-activated cAMP production upon activation of human CB2 receptor (HTRF)
Details: CHO-K1 cells stably transfected with hCB2; 15 μM forskolin; pEC50=-log(EC50); relative to WIN55212-2
Give your result in nM as a bare value.

Some molecules with known EC50 results, for comparison:
>>> recorded_measurement("CCS(=O)(=O)c1ccc2c(c1)nc(C(C)(C)C)n2CC1CCN(C=O)CC1")
23.4
>>> recorded_measurement("CC(=O)N1CCC(Cn2c(C(C)(C)C)nc3cc(S(=O)(=O)c4ccc(F)cc4)ccc32)CC1")
2.75
>>> recorded_measurement("CC(=O)N1CCC(Cn2c(C(C)(C)C)nc3cc(S(=O)(=O)CC4CC4)ccc32)CC1")
9.33
>>> recorded_measurement("CCC(CC)Sc1ccc2c(c1)nc(C(C)(C)C)n2CC1CCN(C(C)=O)CC1")
0.794
>>> recorded_measurement("CCS(=O)(=O)c1ccc2c(c1)nc(CC(C)(C)C)n2CC1CCN(C=O)CC1")
69.2
>>> recorded_measurement("CC(=O)N1CCC(Cn2c(C(C)(C)C)nc3cc(Sc4cccnc4)ccc32)CC1")
2.29

Continue with the molecule presented below.
(Q) Test system human CB2 (hCB2) receptor (Homo sapiens, UniProt P34972); read-out EC50; what value for "CC(=O)N1CCC(Cn2c(C(C)(C)C)nc3cc(SCCc4ccc(F)cc4)ccc32)CC1" ?
(A) 3.98

====

Molecular target: human CB2 (hCB2) receptor (Homo sapiens)
Experiment: Inhibition of forskolin-activated cAMP production upon activation of human CB2 receptor (HTRF)
Conditions: CHO-K1 cells stably transfected with hCB2; 15 μM forskolin; pEC50=-log(EC50); relative to WIN55212-2
Listing of entries alongside the reported pEC50.
To interpret pEC50, take it as minus log10 of a concentration measured in moles per litre.

Some molecules with known pEC50 results, for comparison:
>>> recorded_measurement("CC(=O)N1CCC(Cn2c(C(C)(C)C)nc3cc(S(=O)(=O)c4cccs4)ccc32)CC1")
8.53
>>> recorded_measurement("COCCCOc1cccc(S(=O)(=O)c2ccc3c(c2)nc(C(C)(C)C)n3CC2CCN(C(C)=O)CC2)c1")
8.27
>>> recorded_measurement("CC(=O)N1CCC(Cn2c(C(C)(C)C)nc3cc(SC4CCCC4)ccc32)CC1")
8.89
>>> recorded_measurement("CC(C)(C)c1nc2cc(SCCCO)ccc2n1CC1CCN(C=O)CC1")
8.27
>>> recorded_measurement("CC(=O)N1CCC(Cn2c(C(C)(C)C)nc3cc(S(=O)(=O)c4cccc(OCCCC#N)c4)ccc32)CC1")
8.45

(Q) Test system human CB2 (hCB2) receptor (Homo sapiens); read-out pEC50; what value for "CC(C)(C)c1nc2cc(S(=O)(=O)CC3CC3)ccc2n1CC1CCS(=O)(=O)CC1" ?
(A) 8.07

(Q) Test system human CB2 (hCB2) receptor (Homo sapiens); read-out pEC50; what value for "CC(=O)N1CCC(Cn2c(C(C)(C)C)nc3cc(SCCC#N)ccc32)CC1" ?
(A) 8.00

(Q) Test system human CB2 (hCB2) receptor (Homo sapiens); read-out pEC50; what value for "CC(=O)N1CCC(Cn2c(C(C)(C)C)nc3cc(S(=O)(=O)CCCC(F)(F)F)ccc32)CC1" ?
(A) 7.81

(Q) Test system human CB2 (hCB2) receptor (Homo sapiens); read-out pEC50; what value for "CC(=O)N1CCC(Cn2c(C(C)(C)C)nc3cc(S(=O)(=O)c4ccc[n+]([O-])c4)ccc32)CC1" ?
(A) 7.81

(Q) Test system human CB2 (hCB2) receptor (Homo sapiens); read-out pEC50; what value for "CC(=O)N1CCC(Cn2c(C(C)(C)C)nc3cc(S(=O)(=O)Cc4ccccc4)ccc32)CC1" ?
(A) 8.63
